Hey, just so you know, these numbers are from ChEMBL document CHEMBL1153074.

Assay: in vitro
Conditions: human, Caco-2
Description: Apparent permeability from basolateral to apical side of human Caco-2 cells at 10 uM after 21 days
endpoint: Papp B→A at 10 µM (×10⁻⁶ cm/s)

smiles.input | endpoint | measurement
N#Cc1cccc(CN(c2ccc3[nH]ccc3c2)C2CCNCC2)c1 | Papp B→A at 10 µM | 14
NS(=O)(=O)c1cccc(CN(c2ccc3[nH]ccc3c2)C2CCNCC2)c1 | Papp B→A at 10 µM | 3
c1ccc(CN(c2ccc3[nH]ccc3c2)C2CCNCC2)cc1 | Papp B→A at 10 µM | 6

====

Catalogue of compounds with associated Papp A→B at 10 µM
Test: in vitro
Details: human, Caco-2
Description: Apparent permeability from apical to basolateral side of human Caco-2 cells at 10 uM after 21 days
endpoint: Papp A→B at 10 µM (×10⁻⁶ cm/s)

smiles.input | endpoint | measurement
NS(=O)(=O)c1cccc(CN(c2ccc3[nH]ccc3c2)C2CCNCC2)c1 | Papp A→B at 10 µM | 0.7
c1ccc(CN(c2ccc3[nH]ccc3c2)C2CCNCC2)cc1 | Papp A→B at 10 µM | 6
N#Cc1cccc(CN(c2ccc3[nH]ccc3c2)C2CCNCC2)c1 | Papp A→B at 10 µM | 4

====

Assay: in vitro
Conditions: human, liver microsomes
Description: Intrinsic clearance in human liver microsomes
Could you please mark label 1 for values of microsomal CLint below 20 µL/min/mg and label 0 for values at or above it?

molecule | answer.label
N#Cc1cccc(CN(c2ccc3[nH]ccc3c2)C2CCNCC2)c1 | label 1
NS(=O)(=O)c1cccc(CN(c2ccc3[nH]ccc3c2)C2CCNCC2)c1 | label 1
CNCCC(c1ccccc1)c1ccc2[nH]ccc2c1 (stereo not drawn) | label 1
c1ccc(CN(c2ccc3[nH]ccc3c2)C2CCNCC2)cc1 | label 1
Cn1ccc2cc(N(Cc3ccccc3)C3CCNCC3)ccc21 | label 0
c1ccc(CN(c2ccc3[nH]ccc3c2)C2CCCNC2)cc1 (stereo not drawn) | label 0
c1ccc(CN(c2ccc3[nH]ccc3c2)C2CCNC2)cc1 (stereo not drawn) | label 0
c1ccc(CN(c2ccc3sccc3c2)C2CCNCC2)cc1 | label 1

====

Target: Sodium-dependent dopamine transporter (Homo sapiens)
Sequence (Q01959 whole entry): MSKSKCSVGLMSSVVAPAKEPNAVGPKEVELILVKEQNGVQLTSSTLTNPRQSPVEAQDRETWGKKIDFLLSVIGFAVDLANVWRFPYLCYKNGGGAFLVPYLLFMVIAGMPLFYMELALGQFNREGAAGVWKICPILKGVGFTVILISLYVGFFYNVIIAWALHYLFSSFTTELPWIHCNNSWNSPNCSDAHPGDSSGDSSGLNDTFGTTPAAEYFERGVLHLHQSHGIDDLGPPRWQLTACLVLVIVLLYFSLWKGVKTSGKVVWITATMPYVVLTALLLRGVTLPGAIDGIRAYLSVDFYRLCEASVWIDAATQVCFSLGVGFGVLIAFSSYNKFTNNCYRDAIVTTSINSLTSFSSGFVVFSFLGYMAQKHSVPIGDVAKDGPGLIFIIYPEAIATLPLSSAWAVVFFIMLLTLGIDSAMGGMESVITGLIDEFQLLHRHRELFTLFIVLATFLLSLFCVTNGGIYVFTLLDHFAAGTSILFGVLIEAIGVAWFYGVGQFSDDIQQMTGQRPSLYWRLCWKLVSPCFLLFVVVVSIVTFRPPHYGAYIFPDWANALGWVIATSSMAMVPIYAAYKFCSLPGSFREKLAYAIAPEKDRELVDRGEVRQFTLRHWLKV
Could you please mark MET for values of Ki below 200 nM and NOT MET for values at or above it?

compound | answer.label
c1ccc(CN(c2ccc3[nH]ncc3c2)C2CCNCC2)cc1 | MET
CC(c1ccccc1)N(c1ccc2[nH]ccc2c1)C1CCNCC1 (stereo unspecified) | NOT MET
N#Cc1ccccc1CN(c1ccc2[nH]ccc2c1)C1CCNCC1 | NOT MET
Fc1ccc(CN(c2ccc3[nH]ccc3c2)C2CCNCC2)cc1 | NOT MET
c1cc2cc(N(CC3CCOCC3)C3CCNCC3)ccc2[nH]1 | NOT MET
N#Cc1ccc(CN(c2ccc3[nH]ccc3c2)C2CCNCC2)cc1 | NOT MET
c1ccc(CCN(c2ccc3[nH]ccc3c2)C2CCNCC2)cc1 | MET
COc1cccc(CN(c2ccc3[nH]ccc3c2)C2CCNCC2)c1 | MET
c1ccc(N(c2ccc3[nH]ccc3c2)C2CCNCC2)cc1 | NOT MET
NS(=O)(=O)c1cccc(CN(c2ccc3[nH]ccc3c2)C2CCNCC2)c1 | MET

====

Target: Sodium-dependent dopamine transporter (Homo sapiens)
Could you please mark yes for values of Ki below 40 nM and no for values at or above it?

molecule | answer.label
N#Cc1cccc(CN(c2ccc3[nH]ccc3c2)C2CCNCC2)c1 | yes
Fc1cccc(CN(c2ccc3[nH]ccc3c2)C2CCNCC2)c1 | no
Fc1ccccc1CN(c1ccc2[nH]ccc2c1)C1CCNCC1 | no
CNCCN(c1ccccc1)c1ccc2[nH]ccc2c1 | no
Cn1ccc2cc(N(Cc3ccccc3)C3CCNCC3)ccc21 | no
c1ccc(CN(c2ccc3[nH]ccc3c2)C2CCNC2)cc1 (configuration not stated) | yes

====

Catalogue of compounds with associated IC20
Target: CYP3A4 (Homo sapiens)
Sequence (P08684 whole entry): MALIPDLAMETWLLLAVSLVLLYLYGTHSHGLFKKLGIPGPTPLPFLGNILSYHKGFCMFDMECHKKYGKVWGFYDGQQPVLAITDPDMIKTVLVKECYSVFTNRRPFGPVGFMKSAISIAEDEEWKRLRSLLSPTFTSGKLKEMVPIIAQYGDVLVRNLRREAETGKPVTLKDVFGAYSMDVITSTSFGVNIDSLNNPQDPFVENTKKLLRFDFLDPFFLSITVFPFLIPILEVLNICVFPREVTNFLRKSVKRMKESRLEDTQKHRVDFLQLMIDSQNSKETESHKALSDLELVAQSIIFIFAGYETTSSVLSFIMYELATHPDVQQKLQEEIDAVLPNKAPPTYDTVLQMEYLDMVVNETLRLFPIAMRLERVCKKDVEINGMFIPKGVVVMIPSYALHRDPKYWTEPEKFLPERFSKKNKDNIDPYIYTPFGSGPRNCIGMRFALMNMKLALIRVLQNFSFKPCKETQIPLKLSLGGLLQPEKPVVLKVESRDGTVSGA
Test: in vitro
Description: Inhibition of CYP3A4 by fluorescence assay

compound | readout.qualifier | IC20, nM
Cn1ccc2cc(N(Cc3ccccc3)C3CCNCC3)ccc21 | = | 5000
c1ccc(CN(c2ccc3[nH]ncc3c2)C2CCNCC2)cc1 | = | 500
c1ccc(CN(c2ccc3[nH]ccc3c2)C2CCCNC2)cc1 (configuration not stated) | = | 300
NS(=O)(=O)c1cccc(CN(c2ccc3[nH]ccc3c2)C2CCNCC2)c1 | = | 2000
N#Cc1cccc(CN(c2ccc3[nH]ccc3c2)C2CCNCC2)c1 | = | 2000
CNCCC(c1ccccc1)c1ccc2[nH]ccc2c1 (configuration not stated) | = | 3000
c1ccc(CN(c2ccc3[nH]ccc3c2)C2CCNC2)cc1 (configuration not stated) | = | 2000
c1cc2cc(N(CC3CCOCC3)C3CCNCC3)ccc2[nH]1 | > | 50000
c1ccc(CN(c2ccc3[nH]ccc3c2)C2CCNCC2)cc1 | = | 100
c1ccc(N(c2ccc3[nH]ccc3c2)C2CCNCC2)cc1 | = | 26000
c1ccc(CN(c2ccc3sccc3c2)C2CCNCC2)cc1 | = | 19000
CNCCN(c1ccccc1)c1ccc2[nH]ccc2c1 | = | 2000

====

Target: CYP2D6 (Homo sapiens, UniProt P10635)
Sequence (P10635 whole entry): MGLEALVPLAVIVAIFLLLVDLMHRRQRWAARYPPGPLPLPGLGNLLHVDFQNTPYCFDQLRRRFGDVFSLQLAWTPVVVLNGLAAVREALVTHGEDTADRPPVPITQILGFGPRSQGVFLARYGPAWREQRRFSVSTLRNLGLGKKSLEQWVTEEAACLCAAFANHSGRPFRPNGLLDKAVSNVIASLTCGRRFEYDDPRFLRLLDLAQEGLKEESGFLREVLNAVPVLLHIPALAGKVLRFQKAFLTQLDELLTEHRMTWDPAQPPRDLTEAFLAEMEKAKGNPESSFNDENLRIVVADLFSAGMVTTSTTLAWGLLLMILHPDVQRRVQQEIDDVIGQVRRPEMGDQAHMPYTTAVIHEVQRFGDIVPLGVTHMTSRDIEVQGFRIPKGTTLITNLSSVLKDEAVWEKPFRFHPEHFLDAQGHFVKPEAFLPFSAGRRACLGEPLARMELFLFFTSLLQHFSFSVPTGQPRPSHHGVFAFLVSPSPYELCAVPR
Test: in vitro
Description: Inhibition of CYP2D6 by fluorescence assay
Could you please mark true for values of IC20 below 10 µM and false for values at or above it?

compound | measured.on | answer.label
c1ccc(CN(c2ccc3[nH]ccc3c2)C2CCCNC2)cc1 (configuration not stated) | CYP2D6 (Homo sapiens, UniProt P10635) | true
c1ccc(CN(c2ccc3[nH]ncc3c2)C2CCNCC2)cc1 | CYP2D6 (Homo sapiens, UniProt P10635) | true
NS(=O)(=O)c1cccc(CN(c2ccc3[nH]ccc3c2)C2CCNCC2)c1 | CYP2D6 (Homo sapiens, UniProt P10635) | true
c1cc2cc(N(CC3CCOCC3)C3CCNCC3)ccc2[nH]1 | CYP2D6 (Homo sapiens, UniProt P10635) | false
N#Cc1cccc(CN(c2ccc3[nH]ccc3c2)C2CCNCC2)c1 | CYP2D6 (Homo sapiens, UniProt P10635) | true
c1ccc(N(c2ccc3[nH]ccc3c2)C2CCNCC2)cc1 | CYP2D6 (Homo sapiens, UniProt P10635) | false
c1ccc(CN(c2ccc3[nH]ccc3c2)C2CCNCC2)cc1 | CYP2D6 (Homo sapiens, UniProt P10635) | true
Cn1ccc2cc(N(Cc3ccccc3)C3CCNCC3)ccc21 | CYP2D6 (Homo sapiens, UniProt P10635) | false
c1ccc(CN(c2ccc3[nH]ccc3c2)C2CCNC2)cc1 (configuration not stated) | CYP2D6 (Homo sapiens, UniProt P10635) | true
c1ccc(CN(c2ccc3sccc3c2)C2CCNCC2)cc1 | CYP2D6 (Homo sapiens, UniProt P10635) | false
CNCCN(c1ccccc1)c1ccc2[nH]ccc2c1 | CYP2D6 (Homo sapiens, UniProt P10635) | false
CNCCC(c1ccccc1)c1ccc2[nH]ccc2c1 (configuration not stated) | CYP2D6 (Homo sapiens, UniProt P10635) | true

====

Target: Sodium-dependent serotonin transporter (Homo sapiens)
Sequence (P31645 whole entry): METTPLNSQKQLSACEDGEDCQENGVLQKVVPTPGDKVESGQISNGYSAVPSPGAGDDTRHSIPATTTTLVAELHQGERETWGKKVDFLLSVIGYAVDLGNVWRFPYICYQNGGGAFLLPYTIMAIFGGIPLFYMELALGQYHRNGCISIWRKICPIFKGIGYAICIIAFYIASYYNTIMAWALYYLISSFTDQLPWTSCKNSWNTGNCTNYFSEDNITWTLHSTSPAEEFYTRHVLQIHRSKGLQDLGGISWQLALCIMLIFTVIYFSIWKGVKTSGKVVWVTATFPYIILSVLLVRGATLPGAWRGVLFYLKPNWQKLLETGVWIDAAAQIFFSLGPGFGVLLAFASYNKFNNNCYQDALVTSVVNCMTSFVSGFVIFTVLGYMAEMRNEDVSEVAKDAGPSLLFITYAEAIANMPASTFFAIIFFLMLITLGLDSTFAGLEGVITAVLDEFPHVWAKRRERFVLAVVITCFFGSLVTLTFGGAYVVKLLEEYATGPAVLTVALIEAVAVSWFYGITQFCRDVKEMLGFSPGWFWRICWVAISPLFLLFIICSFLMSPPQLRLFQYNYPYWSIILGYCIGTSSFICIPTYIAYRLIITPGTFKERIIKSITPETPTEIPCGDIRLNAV

molecule | Ki (nM)
c1ccc(CN(c2ccc3sccc3c2)C2CCNCC2)cc1 | 12.6
c1ccc(CN(c2ccc3[nH]ccc3c2)C2CCCNC2)cc1 (stereo not drawn) | 6.31
c1ccc(CCN(c2ccc3[nH]ccc3c2)C2CCNCC2)cc1 | 6.31
